Data credit: ChEMBL document CHEMBL5260802

Test: Oral bioavailability in Sprague-Dawley rat at 1.5 mg/kg and measured after 72 hrs by LC/MS/MS analysis
Type: ADME, organism-based
Conditions: in vivo
test_readout: bioavailability (%)

1) CN1CCC[C@H](N(c2cc(C#CC(C)(C)C)sc2C(=O)O)C(=O)[C@H]2CC[C@H](C)CC2)C1=O :: 24
2) CN1CCC[C@@H](N(c2cc(C#CC(C)(C)C)sc2C(=O)O)C(=O)[C@H]2CC[C@H](C)CC2)C1=O :: 32

---

Experiment: Half life in Sinclair Lab dog at 1 mg/kg,iv and measured after 72 hrs by LC/MS/MS analysis
Type: ADME, organism-based, Canis lupus familiaris
Conditions: in vivo
test_readout: half-life (h)
Give just the numeric value; h need not be written.

Query CN1CCCC[C@H](N(c2cc(C#CC(C)(C)C)sc2C(=O)O)C(=O)[C@H]2CC[C@H](C)CC2)C1=O yields half-life of 1.39
